molecular target: Arginase-2, mitochondrial (Homo sapiens); experiment: in vitro enzyme assay to detect the production of urea directly proportional to the activity of Arginase II; assay type: functional; set-up: scale not given: in the data most compounds retested in dose-response had high values; conditions: 33.3 µM

COMPOUND: O=C(CCc1ccccc1)N1CCn2cc(Cn3cncn3)nc2C1
UNIT_ABBREV: %
Percent Effect: -3.23

COMPOUND: O=C(C1SCCc2sccc21)N1CCC(O)CC1 (stereo unspecified)
UNIT_ABBREV: %
Percent Effect: 0.833

COMPOUND: COc1cc2nc(C)n(CC(=O)NCCCN(C)C)c(=O)c2cc1OC
UNIT_ABBREV: %
Percent Effect: -2.99

COMPOUND: CCC1c2ccsc2CCN1C(=O)NCc1ccccn1 (stereo unspecified)
UNIT_ABBREV: %
Percent Effect: 4.1

COMPOUND: Cn1ccc(C(=O)N2CCN(c3ncccn3)CC2)cc1=O
UNIT_ABBREV: %
Percent Effect: -2

COMPOUND: Cc1cc(S(=O)(=O)N2CCC(S(C)(=O)=O)CC2)ccc1F
UNIT_ABBREV: %
Percent Effect: 8.39

---

target: Ubiquitin-activating enzyme e1, putative (Leishmania donovani (strain BPK282A1)) (UniProt E9BSI1); assay: Leishmania donovani Ubiquitin Activating Enzyme (LdE1); assay type: functional; parameters: scale not given: direction of the effect not stated beside the values; details: 30 µM
Sequence (E9BSI1 as listed by the source): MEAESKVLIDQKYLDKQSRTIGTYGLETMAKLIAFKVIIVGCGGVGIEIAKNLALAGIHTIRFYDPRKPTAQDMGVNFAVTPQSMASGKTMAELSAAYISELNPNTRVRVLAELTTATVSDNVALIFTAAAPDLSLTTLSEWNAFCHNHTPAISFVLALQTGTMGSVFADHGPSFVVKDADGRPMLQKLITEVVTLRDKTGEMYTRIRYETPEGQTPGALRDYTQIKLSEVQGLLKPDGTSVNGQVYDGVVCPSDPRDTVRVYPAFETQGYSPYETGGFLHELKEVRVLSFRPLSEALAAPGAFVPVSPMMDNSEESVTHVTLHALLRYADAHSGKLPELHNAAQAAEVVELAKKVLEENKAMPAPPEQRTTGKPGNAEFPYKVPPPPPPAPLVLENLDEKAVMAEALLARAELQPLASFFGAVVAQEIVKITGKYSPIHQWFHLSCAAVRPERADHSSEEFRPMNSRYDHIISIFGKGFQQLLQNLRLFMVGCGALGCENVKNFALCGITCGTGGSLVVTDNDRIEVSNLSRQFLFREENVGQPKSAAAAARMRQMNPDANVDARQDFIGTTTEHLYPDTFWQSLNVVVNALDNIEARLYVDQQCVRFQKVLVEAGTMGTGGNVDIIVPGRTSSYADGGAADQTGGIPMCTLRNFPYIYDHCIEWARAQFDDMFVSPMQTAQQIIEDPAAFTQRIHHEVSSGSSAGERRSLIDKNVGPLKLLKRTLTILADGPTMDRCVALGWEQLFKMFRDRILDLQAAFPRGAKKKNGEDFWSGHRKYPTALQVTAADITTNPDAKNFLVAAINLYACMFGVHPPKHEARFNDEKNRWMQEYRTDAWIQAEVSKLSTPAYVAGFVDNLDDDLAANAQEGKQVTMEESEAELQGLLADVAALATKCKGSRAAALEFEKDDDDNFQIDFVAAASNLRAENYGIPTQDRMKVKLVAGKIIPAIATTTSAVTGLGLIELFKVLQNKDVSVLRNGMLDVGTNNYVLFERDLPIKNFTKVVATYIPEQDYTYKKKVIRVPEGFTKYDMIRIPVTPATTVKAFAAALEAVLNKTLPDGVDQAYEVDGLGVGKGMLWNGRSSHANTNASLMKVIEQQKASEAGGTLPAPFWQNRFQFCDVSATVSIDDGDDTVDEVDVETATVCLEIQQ
Results with a measured potency or affinity are listed apart.
The following compounds are listed with their measured Percent Effect values.
MEASURE_NAME: Percent Effect (%)

COMPOUND: O=C1CCCc2nccc(-c3ccccc3)c21
UNIT_ABBREV: %
TEST_VALUE: 22.7

COMPOUND: COc1ccc(NC(=O)c2ccc[nH]2)c(N2CCN(C(C)=O)CC2)n1
UNIT_ABBREV: %
TEST_VALUE: 10.8

COMPOUND: CN(CCn1nc2ccccn2c1=O)CC(=O)NC1CC1
UNIT_ABBREV: %
TEST_VALUE: -2.63

COMPOUND: Cc1ccc(-c2nc(CN3CCc4c(ncn4C)C3)cs2)o1
UNIT_ABBREV: %
TEST_VALUE: 2.56

COMPOUND: COCCN1C[C@@H]2CN(c3ncccn3)C[C@@H]2C1=O
UNIT_ABBREV: %
TEST_VALUE: 2.7

COMPOUND: O=C(c1cc(Cl)c2c(c1)OCO2)N1CCCC(n2ccnc2)C1 (configuration not stated)
UNIT_ABBREV: %
TEST_VALUE: 5.33

COMPOUND: CC(=O)N1CCO[C@@H]2CN(C(=O)c3cc(C)oc3C)CC[C@@H]2C1
UNIT_ABBREV: %
TEST_VALUE: 10.8

COMPOUND: Clc1ccc(-n2cc(CNC3CCc4ncnn4C3)cn2)cc1 (configuration not stated)
UNIT_ABBREV: %
TEST_VALUE: 1.27

COMPOUND: Cc1cnn(CC2CCCCN2Cc2nnc(-c3ccco3)o2)c1 (configuration not stated)
UNIT_ABBREV: %
TEST_VALUE: 13.5

COMPOUND: COc1ccc(OC)c(C2CCN(Cc3nc(C)n4ccccc34)C2)c1 (configuration not stated)
UNIT_ABBREV: %
TEST_VALUE: -2.7

COMPOUND: CO[C@@H]1CC[C@H]2[C@H]1OCCN2C(=O)COc1ccc(F)cc1
UNIT_ABBREV: %
TEST_VALUE: -2.7

COMPOUND: Cc1cc(CN2CCN(CCOc3cccc(C#N)c3)CC2)no1
UNIT_ABBREV: %
TEST_VALUE: 15.8

COMPOUND: CC(C)c1nc(C2CCCN(Cc3nnc(C4CC4)o3)C2)no1 (configuration not stated)
UNIT_ABBREV: %
TEST_VALUE: -2.67

COMPOUND: CC(C)Cc1ccc(S(=O)(=O)Nc2ccc(=O)n(C)c2)cc1
UNIT_ABBREV: %
TEST_VALUE: 25.3

COMPOUND: CC(C)c1ncc2c(n1)CN(Cc1nc(-c3ccoc3)no1)CC2
UNIT_ABBREV: %
TEST_VALUE: 10.8

COMPOUND: Cc1cccc(-c2noc(CN3CCCC(Cn4cncn4)C3)n2)c1 (configuration not stated)
UNIT_ABBREV: %
TEST_VALUE: 20.2

COMPOUND: CC(C)C(=O)NCCCn1ncc2c(Cl)cccc21
UNIT_ABBREV: %
TEST_VALUE: 10.4

COMPOUND: O=C(NCCCn1ccnc1)N1CCCC1c1cccs1 (configuration not stated)
UNIT_ABBREV: %
TEST_VALUE: 12.8

COMPOUND: CNC(=O)Cn1cc(C#N)c(=O)c2cc(Br)ccc21
UNIT_ABBREV: %
TEST_VALUE: 13.3

COMPOUND: O=C(N[C@@H]1CN(Cc2cccs2)[C@@H]2CCCO[C@@H]21)C1CC1
UNIT_ABBREV: %
TEST_VALUE: 8

COMPOUND: CCC(NC(=O)c1ccco1)c1ccccc1OCC(=O)N1CCCC1 (configuration not stated)
UNIT_ABBREV: %
TEST_VALUE: 20.5

COMPOUND: CCc1noc(C(C)N2CCN(Cc3nnc(C4CC4)o3)CC2)n1 (configuration not stated)
UNIT_ABBREV: %
TEST_VALUE: 2.67

COMPOUND: Cc1ncc2c(n1)CCN(Cc1nc3ccccc3o1)C2
UNIT_ABBREV: %
TEST_VALUE: 16

COMPOUND: Cc1nnc(N2C[C@@H](OCCCn3cccn3)[C@H]3OCCC[C@H]32)s1
UNIT_ABBREV: %
TEST_VALUE: 5.48

COMPOUND: CCc1noc(CNc2ccc(C(=O)N3CCCC(C)C3)cc2C)n1 (configuration not stated)
UNIT_ABBREV: %
TEST_VALUE: 0

COMPOUND: COc1ncc(C2(O)CCN(Cc3c(F)cccc3F)CC2)c(OC)n1
UNIT_ABBREV: %
TEST_VALUE: 9.33

COMPOUND: O=C(Nc1cccc(CNCc2cccs2)c1)C1CCCC1
UNIT_ABBREV: %
TEST_VALUE: 13.2

COMPOUND: CC(C)c1nc(CN2CCN(CC3CCCO3)CC2)cs1 (configuration not stated)
UNIT_ABBREV: %
TEST_VALUE: 10.4

COMPOUND: O=C(NC1CC1)[C@H]1CC[C@@H]2[C@@H](CCN2c2ncc(F)cn2)O1
UNIT_ABBREV: %
TEST_VALUE: 2.6

COMPOUND: O=C(CCc1cnn(-c2ccccc2)c1)N1CCCC(n2cccn2)C1 (configuration not stated)
UNIT_ABBREV: %
TEST_VALUE: 10.5

COMPOUND: COc1ccc(-n2ncc(C(=O)NCC3COC(C)(C)O3)c2N)cc1 (configuration not stated)
UNIT_ABBREV: %
TEST_VALUE: 14.7

COMPOUND: c1ccc(-c2ccc(C3CNCCO3)nc2)cc1 (configuration not stated)
UNIT_ABBREV: %
TEST_VALUE: 14.7

COMPOUND: NC(=O)c1csc(C(=O)N2CCCC(n3ccnc3)C2)c1 (configuration not stated)
UNIT_ABBREV: %
TEST_VALUE: 3.8

COMPOUND: COC[C@@H]1CC[C@H]2[C@H](CCN2S(=O)(=O)c2ccc(OC)cc2)O1
UNIT_ABBREV: %
TEST_VALUE: -1.3

COMPOUND: O=C(NCCNc1ncccn1)C1CC(=O)N(CC(F)(F)F)C1 (configuration not stated)
UNIT_ABBREV: %
TEST_VALUE: 16.2

COMPOUND: CCS(=O)(=O)N1C[C@H]2CCC[C@@]2(COc2ccccn2)C1
UNIT_ABBREV: %
TEST_VALUE: 12

COMPOUND: Cc1ccc(-c2nc(CCNC(=O)CCN3CCOC3=O)co2)cc1
UNIT_ABBREV: %
TEST_VALUE: 5.33

COMPOUND: O=C(Nc1cccnc1)[C@H]1C[C@H]2OCC[C@H]2N(C(=O)c2ccsc2)C1
UNIT_ABBREV: %
TEST_VALUE: 11.7

COMPOUND: CC(C)Cc1cc(NC(=O)c2ccc[nH]2)n(C)n1
UNIT_ABBREV: %
TEST_VALUE: 5.2

COMPOUND: CC(C)(C)c1nnc(CN2CCN(S(C)(=O)=O)CC2)o1
UNIT_ABBREV: %
TEST_VALUE: 13.5

COMPOUND: Cc1cccc(C(=O)NCc2ccc(N3CCCCC3)nc2)n1
UNIT_ABBREV: %
TEST_VALUE: 13.9

COMPOUND: Cc1cc(C2CCCN2CC(=O)N(CCC#N)c2ccccc2F)on1 (configuration not stated)
UNIT_ABBREV: %
TEST_VALUE: 10.8

COMPOUND: Cc1cc(C2CCCN(C(=O)c3cnccn3)C2)ccn1 (configuration not stated)
UNIT_ABBREV: %
TEST_VALUE: 6.76

COMPOUND: CC(=O)N1CCn2c(C(=O)N(C)C)cnc2C1
UNIT_ABBREV: %
TEST_VALUE: 5.33

COMPOUND: O=c1c(-c2ccnc(NC3CCOCC3)n2)cnc2sc(Cl)cn12
UNIT_ABBREV: %
TEST_VALUE: 16

COMPOUND: Cc1ccn(CCC(=O)N2CCOC(c3nc(-c4cccs4)no3)C2)n1 (configuration not stated)
UNIT_ABBREV: %
TEST_VALUE: 9.33

COMPOUND: Cn1nc(CNC(=O)C2COc3ccccc3O2)cc1C1CC1 (configuration not stated)
UNIT_ABBREV: %
TEST_VALUE: -2.6
